TARGET ENTITY: SSTR4 (Homo sapiens (Human))
Sequence (P31391 whole entry): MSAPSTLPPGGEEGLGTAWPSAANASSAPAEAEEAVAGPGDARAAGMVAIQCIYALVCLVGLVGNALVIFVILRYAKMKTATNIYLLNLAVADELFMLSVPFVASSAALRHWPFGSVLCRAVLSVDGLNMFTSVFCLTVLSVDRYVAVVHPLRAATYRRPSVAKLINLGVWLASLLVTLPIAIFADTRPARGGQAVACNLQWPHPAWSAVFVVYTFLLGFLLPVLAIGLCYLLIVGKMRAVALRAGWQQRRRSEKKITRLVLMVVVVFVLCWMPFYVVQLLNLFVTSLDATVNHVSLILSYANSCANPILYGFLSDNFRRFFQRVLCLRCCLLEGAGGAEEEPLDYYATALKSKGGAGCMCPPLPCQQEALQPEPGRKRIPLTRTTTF
MEASUREMENT DESCRIPTION: Inhibition of forskolin stimulated cAMP in CHO-K1 cells overexpressing SSTR4
Format: cell-based
For each entry below, report its SSTR4 Activity pEC50 value.
Give the figure only, with no unit attached.

Lookup: Answer with the recorded SSTR4 Activity pEC50 for the molecule listed here: C[C@@H]1CN(C)CC[C@H]1NC(=O)C(C)(C)COc1ncccc1C(F)(F)F (relative stereo) [Example 109]
Found: 8.0

Lookup: Retrieve SSTR4 Activity pEC50 measured for CC[C@@H]1CN(C)CC[C@H]1NC(=O)C(C)(C)COc1ncccc1C(F)(F)F (single isomer, unassigned) [Example 144] and print it.
Found: 8.7

Lookup: Determine its reported SSTR4 Activity pEC50: CC[C@@H]1CN(C)CC[C@@H]1NC(=O)C(C)(C)COc1ncccc1OC(F)(F)F (relative stereo) [Example 116]
Found: 7.5

Lookup: Determine from records and report SSTR4 Activity pEC50 for CN1CCC(NC(=O)C(C)(C)COc2nnc(Cl)cc2C(F)(F)F)CC1 [Example 98]
Found: 6.2

Lookup: Give the reported SSTR4 Activity pEC50 for this molecule. CN1CC[C@@H](NC(=O)C(C)(C)COc2ncncc2C2CC2)C1 [Example 4]
Found: 6.5

Lookup: Given the molecule C[C@@H]1CN(C)CC[C@H]1NC(=O)C(C)(C)COc1ncccc1C1CC1 (relative stereo) [Example 20] , write its reported SSTR4 Activity pEC50.
Found: 8.3

Lookup: Please list SSTR4 Activity pEC50 recorded for the molecule Cc1cnc(OCC(C)(C)C(=O)NC2CCN(C)CC2)c(C(F)(F)F)c1 [Example 101]
Found: 7.3

Lookup: Supply reported SSTR4 Activity pEC50 belonging to this molecule: C[C@H]1C[C@@H](NC(=O)C(C)(C)COc2ncccc2OC(F)(F)F)CCN1C [Example 152]
Found: 7.0
